Reference for the values: ChEMBL document CHEMBL3352419

# Tested on: Giardia intestinalis
# protocol_notes: Antiprotozoal activity against Giardia lamblia IMSS: 8909:1 trophozoites assessed as growth inhibition compound treated for 48 hrs measured 48 hrs post wash-out by MTT assay
# Assay type: functional, organism-based
# test_conditions: Giardia duodenalis, IMSS: 8909:1, 48 h
readout_type: IC50 (µg/mL)
Entry rule: numbers only, all in µg/mL.

Solved cases (4 shown):
Reported IC50 for C=C1C(=O)O[C@H]2/C=C(C)\C=C/[C@H]3O[C@]3(C)C[C@@H](OCCC)[C@@H]12 was 31.2

Reported IC50 for C=C1C(=O)O[C@H]2/C=C(C)\C=C/[C@H]3O[C@]3(C)C[C@@H](OC(=O)CC)[C@@H]12 was 68.8

Reported IC50 for C=C1C(=O)O[C@H]2/C=C(C)\C=C/[C@H]3O[C@]3(C)C[C@@H](OC)[C@@H]12 was 35.2

Reported IC50 for C=C1C(=O)O[C@H]2/C=C(C)\C=C/[C@H]3O[C@]3(C)C[C@@H](OC(=O)CCCC)[C@@H]12 was 58.3

Attention now shifts to the item below.
Reported IC50 for C=C1C(=O)O[C@H]2/C=C(C)\C=C/[C@H]3O[C@]3(C)C[C@@H](OC(=O)C(F)(F)F)[C@@H]12 was 43.3

###

Entries annotated with measured IC50
# Test system: Giardia intestinalis
# protocol_notes: Antiprotozoal activity against Giardia lamblia IMSS: 8909:1 trophozoites assessed as growth inhibition compound treated for 48 hrs measured 48 hrs post wash-out by MTT assay
# Format: functional, organism-based
# test_conditions: Giardia duodenalis, IMSS: 8909:1, 48 h
Entry rule: numbers only, all in µg/mL.

Solved cases (3 shown):
Reported IC50 for C=C1C(=O)O[C@H]2/C=C(C)\C=C/[C@H]3O[C@]3(C)C[C@@H](OC(C)=O)[C@@H]12 was 18.1

Reported IC50 for C=C1C(=O)O[C@H]2/C=C(C)\C=C/[C@H]3O[C@]3(C)C[C@@H](OC(=O)C(C)C)[C@@H]12 was 62.2

Reported IC50 for C=C1C(=O)O[C@H]2/C=C(C)\C=C/[C@H]3O[C@]3(C)C[C@@H](OC(=O)CCC)[C@@H]12 was 51.7

Attention now shifts to the item below.
Reported IC50 for C=C1C(=O)O[C@H]2/C=C(C)\C=C/[C@H]3O[C@]3(C)C[C@@H](OC(C)C)[C@@H]12 was 32.7

###

# Tested on: Giardia intestinalis
# protocol_notes: Antiprotozoal activity against Giardia lamblia IMSS: 8909:1 trophozoites assessed as growth inhibition compound treated for 48 hrs measured 48 hrs post wash-out by MTT assay
# Assay type: functional, organism-based
# test_conditions: Giardia duodenalis, IMSS: 8909:1, 48 h
Entries annotated with measured IC50
Entry rule: numbers only, all in µg/mL.

Reported IC50 for C=C(C)C(=O)O[C@@H]1C[C@@]2(C)O[C@@H]2/C=C\C(C)=C/[C@@H]2OC(=O)C(=C)[C@@H]21 was 44.2

Reported IC50 for C=C1C(=O)O[C@H]2/C=C(C)\C=C/[C@H]3O[C@]3(C)C[C@@H](O)[C@@H]12 was 257

Reported IC50 for C=C1C(=O)O[C@H]2/C=C(C)\C=C/[C@H]3O[C@]3(C)CC(=O)[C@@H]12 was 30.6

Attention now shifts to the item below.
Reported IC50 for C=C1C(=O)O[C@H]2/C=C(C)\C=C/[C@H]3O[C@]3(C)C[C@@H](OCC)[C@@H]12 was 43.8
